The following compounds are listed with their measured IC50 values.
assayTarget: Aromatase (Homo sapiens, UniProt P11511)
property: IC50 (nM)

> print(dat)
                                    compound  datavalue
 1  C[C@]12CCCC=C1C(=O)C[C@@H]1[C@@H]2CC[C@]2(C)C(=O)CC[C@@H]12        165
 2  C[C@]12CC[C@@H]3C4CCC=CC4=CC(=O)[C@H]3[C@@H]1CCC2=O (stereo not given in full)      33000
 3  CC(=O)O[C@H]1CCC[C@@]2(C)C1=CC(=O)[C@@H]1[C@@H]2CC[C@]2(C)C(=O)CC[C@@H]12      95100
 4  CCCC[C@@H]1C[C@@H]2[C@H](CC[C@]3(C)C(=O)CC[C@@H]23)[C@@]2(C)CCC(=O)C=C12        511
 5  C[C@]12CC[C@H]3[C@@H](C=CC45OC4C(=O)CC[C@]35C)[C@@H]1CCC2=O (stereo not given in full)      15300
 6  C[C@]12CC[C@H]3[C@@H](CCC4=CC(=O)CC[C@@]43CC(F)F)[C@@H]1CCC2=O       4000
 7  C[C@]12CCC(=O)C=C1C(CCCc1ccccc1)=C[C@@H]1[C@@H]2CC[C@]2(C)C(=O)CC[C@@H]12        250
 8  C[C@]12CC[C@H]3[C@@H]([C@H](Cc4ccccc4)CC4=CC(=O)CC[C@@]43C)[C@@H]1CC[C@@H]2O       39.5
 9  C[C@]12CCC(=O)C(O)=C1C=C[C@@H]1[C@@H]2CC[C@]2(C)C(=O)CC[C@@H]12       1000
10  C[C@]12CCCC=C1CC[C@@H]1[C@@H]2CC[C@]2(C)C(=O)[C@@H](Br)C[C@@H]12       5900
11  C#C[C@]12CCC(=O)C=C1CC[C@@H]1[C@@H]2CC[C@]2(C)C(=O)CC[C@@H]12       1000
12  C[C@]12CC[C@H]3[C@@H](CC=C4CCCC[C@@]43C=O)[C@@H]1CCC2=O       8990
13  COc1cc2c(cc1O)CC[C@@H]1[C@@H]2CC[C@]2(C)C(=O)CC[C@@H]12      17000
14  C[C@]12C=CC(=O)C=C1[C@H](CCc1ccccc1)C[C@@H]1[C@@H]2CC[C@]2(C)C(=O)CC[C@@H]12        579
15  C[C@]12CCCCC1=CC[C@@H]1[C@@H]2CC[C@]2(C)C(=O)[C@H](Br)C[C@@H]12      55000
16  C[C@]12CCC(=O)c3c1c(nn3C/C=C/c1ccccc1)C[C@@H]1[C@@H]2CC[C@]2(C)C(=O)CC[C@@H]12        899
17  C[C@]12CC[C@H]3[C@@H](CCC4=CCCC[C@@]43C=O)[C@@H]1C[C@@H](O)C2=O      28000
18  CCCCCC1=C[C@@H]2[C@H](CC[C@]3(C)C(=O)CC[C@@H]23)[C@@]2(C)CCC(=O)C=C12        220
19  C[C@]12CCC(=O)c3nn(Cc4ccccc4)c(c31)C[C@@H]1[C@@H]2CC[C@]2(C)C(=O)CC[C@@H]12        245
20  CCCCS[C@@H]1CC2=CC(=O)CC[C@]2(C)[C@H]2CC[C@]3(C)C(=O)CC[C@H]3[C@H]12         57
21  C[C@]12CCC(=O)c3[nH]nc(c31)C[C@@H]1[C@@H]2CC[C@]2(C)C(=O)CC[C@@H]12        236
22  C[C@]12CCC(=O)c3nn(Cc4cccc([N+](=O)[O-])c4)c(c31)C[C@@H]1[C@@H]2CC[C@]2(C)C(=O)CC[C@@H]12        490
23  C[C@]12CC[C@H]3[C@@H](CCC4=CC(=O)CC[C@@]43C)[C@@H]1CC[C@@H]2OC(=O)CBr      50000
24  C[C@]12CCC(=O)C=C1C(CCCCCc1ccccc1)=C[C@@H]1[C@@H]2CC[C@]2(C)C(=O)CC[C@@H]12        300
25  C[C@]12CC[C@H]3[C@@H](CCC4=C(O)C(=O)CC[C@@]43C(F)F)[C@@H]1CCC2=O       2500
26  CCCCCC[C@@H]1C[C@@H]2[C@H](CC[C@]3(C)C(=O)CC[C@@H]23)[C@@]2(C)CCC(=O)C=C12        430
27  C[C@]12C=C(CCc3ccc(C(F)(F)F)cc3)C(=O)C=C1CC[C@@H]1[C@@H]2CC[C@]2(C)C(=O)CC[C@@H]12      34100
28  Cc1cc2c(cc1O)CC[C@@H]1[C@@H]2CC[C@]2(C)C(=O)CC[C@@H]12       4300
29  C[C@]12CC[C@H]3[C@@H](CC(=O)[C@]45O[C@H]4CCC[C@]35C)C1CCC2=O (stereo not given in full)      11500
30  C[C@]12CCCC(=O)C1CC[C@@H]1[C@@H]2CC[C@]2(C)C(=O)CC[C@@H]12 (stereo not given in full)       2400

* * *

assayTarget: Aromatase (Homo sapiens, UniProt P11511)
Sequence (P11511 whole entry): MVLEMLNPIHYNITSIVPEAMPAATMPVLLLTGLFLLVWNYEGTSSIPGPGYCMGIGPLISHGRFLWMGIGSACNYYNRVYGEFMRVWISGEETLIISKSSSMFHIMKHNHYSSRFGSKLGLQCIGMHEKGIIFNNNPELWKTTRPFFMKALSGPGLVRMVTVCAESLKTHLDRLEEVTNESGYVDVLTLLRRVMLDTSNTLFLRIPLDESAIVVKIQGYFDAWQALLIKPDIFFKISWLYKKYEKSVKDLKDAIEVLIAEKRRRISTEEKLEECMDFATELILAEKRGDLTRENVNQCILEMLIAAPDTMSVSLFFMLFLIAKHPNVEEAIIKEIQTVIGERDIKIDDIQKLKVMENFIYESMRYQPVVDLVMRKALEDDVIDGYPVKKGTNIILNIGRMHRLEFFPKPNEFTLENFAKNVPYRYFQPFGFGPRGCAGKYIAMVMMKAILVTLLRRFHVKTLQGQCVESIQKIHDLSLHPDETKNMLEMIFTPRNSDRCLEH
IC50 values by entry
property: IC50 (nM)

> print(dat)
                                    compound  property  datavalue
 1  COc1ccc(/C=C2/C[C@H]3[C@@H]4CC[C@H]5C[C@@H](O)CC[C@]5(C)[C@H]4CC[C@]3(C)C2=O)cc1      IC50       7130
 2  CCCCC(=O)O[C@@H]1C[C@@H]2[C@H](CC[C@]3(C)C(=O)CC[C@@H]23)[C@@]2(C)CCC(=O)C=C12      IC50       1500
 3  C[C@]12CC[C@@H]3C4CCC(=O)C=C4CC[C@H]3[C@@H]1CCC2=O (stereo partly specified)      IC50       1200
 4  C[C@]12C=CC(=O)C=C1C=C(CCc1ccccc1)[C@@H]1[C@@H]2CC[C@]2(C)C(=O)CC[C@@H]12      IC50        172
 5  COc1ccc([C@@H]2[C@H]3C[C@H]4[C@@H]5CC[C@H]6C[C@@H](OC(=O)C(F)(F)F)CC[C@]6(C)[C@H]5CC[C@]4(C)C3=NN2c2ccccc2)cc1      IC50       5450
 6  C[C@]12C=CC(=O)C=C1[C@@H](OCc1ccccc1)C[C@@H]1[C@@H]2CC[C@]2(C)C(=O)CC[C@@H]12      IC50       1900
 7  CC(=O)N1N=C2[C@H](C[C@H]3[C@@H]4CC[C@H]5C[C@@H](OC(=O)C(F)(F)F)CC[C@]5(C)[C@H]4CC[C@]23C)[C@H]1c1ccccc1      IC50       6580
 8  CCCCO[C@@H]1C[C@@H]2[C@H](CC[C@]3(C)C(=O)CC[C@@H]23)[C@@]2(C)CCC(=O)C=C12      IC50        420
 9  CC1(C)C[C@@]2(C=O)C(=CC1=O)CC[C@@H]1[C@@H]2CC[C@]2(C)C(=O)CC[C@@H]12      IC50        600
10  CN1N=C2[C@H](C[C@H]3[C@@H]4CC[C@H]5CC(=O)CC[C@]5(C)[C@H]4CC[C@]23C)[C@H]1c1ccccc1      IC50       4780
11  C[C@]12CCC(=O)C=C1[C@H](OCc1ccccc1)C[C@@H]1[C@@H]2CC[C@]2(C)C(=O)CC[C@@H]12      IC50       84.9
12  CCCCCC(=O)O[C@@H]1C[C@@H]2[C@H](CC[C@]3(C)C(=O)CC[C@@H]23)[C@@]2(C)CCC(=O)C=C12      IC50        530
13  C[C@]12CC[C@H](OC(=O)C(F)(F)F)C[C@@H]1CC[C@@H]1[C@@H]2CC[C@]2(C)C3=NN(c4ccccc4)[C@H](c4ccccc4)[C@H]3C[C@@H]12      IC50       5680
14  C[C@]12C=CC(=O)C=C1C=C(c1ccccc1)[C@@H]1[C@@H]2CC[C@]2(C)C(=O)CC[C@@H]12      IC50       2220
15  C[C@]12CCC(=O)C(SCCl)=C1CC[C@@H]1C2=CC[C@]2(C)C(=O)CC[C@@H]12      IC50        859
16  CO[C@@H]1C[C@@]2(C)C(=CC1=O)CC[C@@H]1[C@@H]2CC[C@]2(C)C(=O)CC[C@@H]12      IC50      11800
17  COc1ccc([C@@H]2[C@H]3C[C@H]4[C@@H]5CC[C@H]6CC(=O)CC[C@]6(C)[C@H]5CC[C@]4(C)C3=NN2C)cc1      IC50       4560
18  CCCCO[C@@H]1C[C@@H]2[C@H](CC[C@]3(C)C(=O)CC[C@@H]23)[C@@]2(C)C=CC(=O)C=C12      IC50        460
19  CCCCC(=O)O[C@H]1C[C@@H]2[C@H](CC[C@]3(C)C(=O)CC[C@@H]23)[C@@]2(C)CCC(=O)C=C12      IC50        140
20  CO[C@@H]1C[C@@H]2[C@H](CC[C@]3(C)C(=O)CC[C@@H]23)[C@@]2(C)CCC(=O)C=C12      IC50        170
21  COc1ccc(/C=C2/C[C@H]3[C@@H]4CC[C@H]5C[C@@H](OC(=O)C(F)(F)F)CC[C@]5(C)[C@H]4CC[C@]3(C)C2=O)cc1      IC50       7000
22  COc1ccc([C@H]2NN=C3[C@@H]2C[C@H]2[C@@H]4CC[C@H]5C[C@@H](O)CC[C@]5(C)[C@H]4CC[C@]32C)cc1      IC50       6820
23  C[C@@H]1C[C@@]2(C=O)C(=CC1=O)CC[C@@H]1[C@@H]2CC[C@]2(C)C(=O)CC[C@@H]12      IC50      12000
24  C[C@]12C=CC(=O)C=C1CC[C@@H]1[C@@H]2CC[C@]2(C)C3=NN[C@H](c4ccccc4)[C@H]3C[C@@H]12      IC50       3010
25  C[C@]12CCC(=O)C(S)=C1CC[C@@H]1C2=CC[C@]2(C)C(=O)CC[C@@H]12      IC50       3800
26  CCCCCC(=O)O[C@H]1C[C@@H]2[C@H](CC[C@]3(C)C(=O)CC[C@@H]23)[C@@]2(C)C=CC(=O)C=C12      IC50        210
